- System: 521955-158-R2-J5-PDC complex spheroid viability
- ASSAY_SUMMARY: Anticancer human tumor 521955-158-R2-J5-PDC patient-derived pancreatic carcinoma cell line growth inhibition
- CONDITION: second compound 0.1 µM; first compound 0.003 µM; hits give low values
Field: label. Allowed values: TRUE (viability, T/C < 90%) or FALSE (viability, T/C >= 90%).

Field: example entries. Status: answers known.
{"COMPOUND": "Nc1ccn(C2OC(CO)C(O)C2(F)F)c(=O)n1 (stereo unspecified) + NC1CCC(NC2CC2c2ccccc2)CC1", "CATEGORY": "FALSE"}
{"COMPOUND": "CCc1c2c(nc3ccc(O)cc13)-c1cc3c(c(=O)n1C2)COC(=O)[C@]3(O)CC + NC1CC1c1ccc(-c2cccc(O)c2)cc1", "CATEGORY": "TRUE"}
{"COMPOUND": "Nc1ccn(C2OC(CO)C(O)C2(F)F)c(=O)n1 (stereo unspecified) + NC1CC1c1ccc(-c2cccc(O)c2)cc1", "CATEGORY": "TRUE"}
{"COMPOUND": "CCc1c2c(nc3ccc(O)cc13)-c1cc3c(c(=O)n1C2)COC(=O)[C@]3(O)CC + NC1CCC(NC2CC2c2ccccc2)CC1", "CATEGORY": "TRUE"}

Next item in the queue.
Task: Lab note: confirm whether the reported viability, T/C for this compound is below 90%, equality not counting. compound: Nc1ncn(C2CC(O)C(CO)S2)c(=O)n1 (stereo unspecified) + NC1CC1c1ccc(-c2cccc(O)c2)cc1
Result: FALSE

----------
viability, T/C listing for selected compounds.
- Test system: 521955-158-R2-J5-PDC complex spheroid viability
- ASSAY_SUMMARY: Anticancer human tumor 521955-158-R2-J5-PDC cell line growth inhibition;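 also: spheroids exposed to agents for seven days; percent of DMSO vehicle control luminescence viability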
- CONDITION: second compound 10 µM; first compound 0.00316 µM; hits give low values
Use % as the unit, but write only the number.

{"COMPOUND": "Nc1ncn(C2CC(O)C(CO)O2)c(=O)n1 (stereo unspecified) + NC1CCC(NC2CC2c2ccccc2)CC1", "RECORDED_RESULT": 95.3}
{"COMPOUND": "O=C(C=Cn1cnc(-c2cc(C(F)(F)F)cc(C(F)(F)F)c2)n1)NNc1cnccn1 + NC1CC1c1ccc(-c2cccc(O)c2)cc1", "RECORDED_RESULT": 56.6}
{"COMPOUND": "Cn1ncnc1C1c2n[nH]c(=O)c3cc(F)cc(c23)NC1c1ccc(F)cc1 (stereo unspecified) + NC1CCC(NC2CC2c2ccccc2)CC1", "RECORDED_RESULT": 92.8}

Task: Tell us which viability, T/C value is on record for CC(C)CC(NC(=O)CNC(=O)c1cc(Cl)ccc1Cl)B1OC(=O)CC(CC(=O)O)(C(=O)O)O1 (stereo unspecified) + NC1CCC(NC2CC2c2ccccc2)CC1
Result: 74.5

Task: In one line, give reported viability, T/C of the entry CC1COCCN1c1cc(-c2ccnn2C)c2ccnc(-c3ccn[nH]3)c2n1 (stereo unspecified) + NC1CCC(NC2CC2c2ccccc2)CC1 .
Result: 16.8

Task: Read off the recorded viability, T/C for CC1COCCN1c1cc(-c2ccnn2C)c2ccnc(-c3ccn[nH]3)c2n1 (stereo unspecified) + NC1CC1c1ccc(-c2cccc(O)c2)cc1
Result: 26.7

Task: Please supply the value of reported viability, T/C for the item CC[C@@]1(O)C(=O)OCc2c1cc1n(c2=O)Cc2cc3c(CN(C)C)c(O)ccc3nc2-1 + NC1CCC(NC2CC2c2ccccc2)CC1
Result: 67

----------
- System: 521955-158-R2-J5-PDC complex spheroid viability
- ASSAY_SUMMARY: Anticancer human tumor 521955-158-R2-J5-PDC cell line growth inhibition; active = viability on the fitted dose curve at most 10% of control; inactive = the rest;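 also: spheroids exposed to agents for seven days; percent of DMSO vehicle control luminescence viability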
- CONDITION: second compound 0.316 µM; first compound 0.1 µM
In this exercise, the only acceptable responses are active, inactive

Example results:
{"COMPOUND": "CC1COCCN1c1cc(-c2ccnn2C)c2ccnc(-c3ccn[nH]3)c2n1 (centres undefined) + NC1CC1c1ccc(-c2cccc(O)c2)cc1", "EXPERIMENTAL_SYSTEM": "521955-158-R2-J5-PDC complex spheroid viability", "CATEGORY": "inactive"}
{"COMPOUND": "O=C(C=Cn1cnc(-c2cc(C(F)(F)F)cc(C(F)(F)F)c2)n1)NNc1cnccn1 + NC1CC1c1ccc(-c2cccc(O)c2)cc1", "EXPERIMENTAL_SYSTEM": "521955-158-R2-J5-PDC complex spheroid viability", "CATEGORY": "inactive"}
{"COMPOUND": "CC(C)c1c(-c2ccccc2)nc2c(C#N)c[nH]n2c1=O + NC1CCC(NC2CC2c2ccccc2)CC1", "EXPERIMENTAL_SYSTEM": "521955-158-R2-J5-PDC complex spheroid viability", "CATEGORY": "inactive"}
{"COMPOUND": "CC(C)CC(NC(=O)CNC(=O)c1cc(Cl)ccc1Cl)B1OC(=O)CC(CC(=O)O)(C(=O)O)O1 (centres undefined) + NC1CCC(NC2CC2c2ccccc2)CC1", "EXPERIMENTAL_SYSTEM": "521955-158-R2-J5-PDC complex spheroid viability", "CATEGORY": "active"}

Task: Returns: the outcome recorded for O=C(c1cc(Cc2n[nH]c(=O)c3ccccc23)ccc1F)N1CCN(C(=O)C2CC2)CC1 + NC1CC1c1ccc(-c2cccc(O)c2)cc1 in this assay.
Result: inactive

Task: What outcome does the record of this test show for CC(C)CC(NC(=O)CNC(=O)c1cc(Cl)ccc1Cl)B1OC(=O)CC(CC(=O)O)(C(=O)O)O1 (centres undefined) + NC1CC1c1ccc(-c2cccc(O)c2)cc1 ?
Result: active

Task: Tell me the assay call for CC1COCCN1c1cc(-c2ccnn2C)c2ccnc(-c3ccn[nH]3)c2n1 (centres undefined) + NC1CCC(NC2CC2c2ccccc2)CC1 please.
Result: inactive

Task: What outcome does the record of this test show for O=C(c1cc(Cc2n[nH]c(=O)c3ccccc23)ccc1F)N1CCN(C(=O)C2CC2)CC1 + NC1CCC(NC2CC2c2ccccc2)CC1 ?
Result: inactive

Task: Look up the recorded call for COc1cc(Nc2ncc3c(n2)-c2ccc(Cl)cc2C(c2c(F)cccc2OC)=NC3)ccc1C(=O)O + NC1CC1c1ccc(-c2cccc(O)c2)cc1 in this test.
Result: inactive

Task: # lookup: test call for CC1(C)CCC(CN2CCN(c3ccc(C(=O)NS(=O)(=O)c4ccc(NCC5CCOCC5)c([N+](=O)[O-])c4)c(Oc4cnc5[nH]ccc5c4)c3)CC2)=C(c2ccc(Cl)cc2)C1 + NC1CCC(NC2CC2c2ccccc2)CC1
Result: inactive

Task: Record request — test call for Cn1ncnc1C1c2n[nH]c(=O)c3cc(F)cc(c23)NC1c1ccc(F)cc1 (centres undefined) + NC1CC1c1ccc(-c2cccc(O)c2)cc1
Result: inactive

Task: Hey, what did the test say about CC(C)c1c(-c2ccccc2)nc2c(C#N)c[nH]n2c1=O + NC1CC1c1ccc(-c2cccc(O)c2)cc1 ?
Result: inactive

Task: Assay outcome for COc1ccc([C@@H](O)c2cc(-c3ncnc4cc(N5CCOCC5)ccc34)c(F)cc2Cl)nn1 + NC1CC1c1ccc(-c2cccc(O)c2)cc1 : what was it?
Result: inactive

Task: What classification did COc1cc(Nc2ncc3c(n2)-c2ccc(Cl)cc2C(c2c(F)cccc2OC)=NC3)ccc1C(=O)O + NC1CCC(NC2CC2c2ccccc2)CC1 end up with in this test?
Result: inactive

----------
- System: 521955-158-R2-J5-PDC complex spheroid viability
- ASSAY_SUMMARY: Anticancer human tumor 521955-158-R2-J5-PDC cell line growth inhibition;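 also: spheroids exposed to agents for seven days; percent of DMSO vehicle control luminescence viability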
- CONDITION: second compound 10 µM; first compound 0.316 µM; hits give low values
List of viability, T/C values.

Task: Indicate the recorded viability, T/C value for this compound: COc1ccc([C@@H](O)c2cc(-c3ncnc4cc(N5CCOCC5)ccc34)c(F)cc2Cl)nn1 + NC1CCC(NC2CC2c2ccccc2)CC1
Result: 64.5%

----------
Recorded viability, T/C by entry
- Test system: 521955-158-R2-J5-PDC complex spheroid viability
- ASSAY_SUMMARY: Anticancer human tumor 521955-158-R2-J5-PDC cell line growth inhibition;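 also: spheroids exposed to agents for seven days; percent of DMSO vehicle control luminescence viability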
- CONDITION: second compound 0.316 µM; first compound 0.00949 µM; hits give low values

{"MOLECULE": "COc1cc(C2c3cc4c(cc3C(OC3OC5COC(C)OC5C(O)C3O)C3COC(=O)C23)OCO4)cc(OC)c1O (centres undefined) + NC1CC1c1ccc(-c2cccc(O)c2)cc1", "RECORDED_RESULT": "87.3%"}
{"MOLECULE": "Nc1ncn(C2CC(O)C(CO)S2)c(=O)n1 (centres undefined) + NC1CCC(NC2CC2c2ccccc2)CC1", "RECORDED_RESULT": "88.9%"}
{"MOLECULE": "Nc1ncn(C2CC(O)C(CO)S2)c(=O)n1 (centres undefined) + NC1CC1c1ccc(-c2cccc(O)c2)cc1", "RECORDED_RESULT": "93.1%"}

Next molecule, viability, T/C to be filled in.
Task: Determine from records and report viability, T/C for O=C(C=Cc1cccc(S(=O)(=O)Nc2ccccc2)c1)NO + NC1CC1c1ccc(-c2cccc(O)c2)cc1
Result: 94.1%
